- EXPERIMENT_SUMMARY: Initial plasma concentration in C3H/HeN mouse at 50 mg/kg, iv
- Type: ADME, organism-based
- Parameters: dose 50 mg/kg, route intravenous
VALUE_TYPE: C0 (µg/mL)
Please state the figure in µg/mL; there is no need to write the unit.

SMILES: O=C(c1ccc(-c2ccc(O[C@H]3O[C@H](CO)[C@@H](O)[C@H](O)[C@@H]3O)cc2)cc1)N1CCOCC1
VALUE_TYPE: C0
RESULT_NUMBER: 110
--
SMILES: O=C(O)c1ccc(-c2ccc(O[C@H]3O[C@H](CO)[C@@H](O)[C@H](O)[C@@H]3O)cc2)cc1
VALUE_TYPE: C0
RESULT_NUMBER: 40

Now turn to the next molecule.
## Task Any idea what C0 was measured for CNS(=O)(=O)c1ccc(-c2ccc(O[C@H]3O[C@H](CO)[C@@H](O)[C@H](O)[C@@H]3O)cc2)cc1 ?
## Result 152
